Each entry below carries its reported Rf w Verapamil.
- System: SW1573/Pgp
- assay_remarks: P-glycoprotein assay, line overexpressing P-gp
- Type: cell-based, human
- test_parameters: ratio between GI50 values in SW1573/PGP and SW1573 cells, with verapamil
- Procedure: This assay allows prediction of whether a certain chemotherapeutic agent could develop chemoresistance when behaving as a P-gp substrate, one of the most common efllux-pumps used for the extrusion of cell xenobiotics. For that purpose, a cell line-based assay was used, in particular the lung cancer cell line in its wild type (SW1573), and its variant overexpressing P-gp (Sw1573/Pgp). Moreover, compounds were tested in the presence and in the absence of verapamil, which is known to inhibit P-gp. […]
// print number alone

Reference set, count: 2
# smiles_string, assayed_system, Rf w Verapamil
rows = [
    ("N#C[Se]CCCC(=O)NCCc1ccc2c(c1)OCO2", "SW1573/Pgp", 2.3),
    ("N#C[Se]Cc1ccc2c(c1)OCO2", "SW1573/Pgp", 2.3),
]

Consider now this further compound.
Sample `O=C(CCC[Se][Se]CCCC(=O)NCCc1ccc(O)c(O)c1)NCCc1ccc(O)c(O)c1` ; Rf w Verapamil observed: 2.2

* * *

- System: T-47D (breast)
- assay_remarks: Antiproliferative activity, NCI protocol
- Assay type: cell-based, human
- test_parameters: Homo sapiens, T47D; drug resistant line; read-out: GI50 T-47D (Breast)
# label = condition met if GI50 < 6 µM else condition not met

# molecule, classification
measured = [
    ("O=C(O)CC[Se][Se]CCC(=O)O [Compound 13, 3,3′-Diselenobispropanoic acid]", "condition not met"),
    ("N#C[Se]Cc1ccc2c(c1)OCO2 [Compound 35]", "condition met"),
    ("O=c1c2ccccc2[se]n1-c1ccccc1 [Ebselen, 2-phenyl-1,2-benzoselenazol-3-one, reference compound]", "condition not met"),
    ("O=C(O)CSSCC(=O)O [Compound 6, Dithiodiacetic acid]", "condition not met"),
    ("c1ccc(C[Se]CCc2ccc3c(c2)OCO3)cc1 [Compound 38]", "condition met"),
]

Identify whether the molecule N#C[Se]CCc1ccc2c(c1)OCO2 [Compound 36] records GI50 below 6 µM.
condition met

* * *

Each entry below carries its reported GI50.
- System: SW1573 (non-small cell lung)
- assay_remarks: Antiproliferative activity, NCI protocol
- Type: cell-based, human
- test_parameters: Homo sapiens, SW1573, read-out: GI50 SW1573 (Lung)

# smiles_string, GI50
rows = [
    ("N#C[Se]CCC(=O)O", "> 100 µM"),
]

Sample `O=C(O)CCC[Se][Se]CCCC(=O)O` ; GI50 observed: > 100 µM

Sample `c1cc2c(cc1CCC[Se][Se]CCCc1ccc3c(c1)OCO3)OCO2` ; GI50 observed: 37 µM

Sample `O=c1c2ccccc2[se]n1CCc1ccc(O)c(O)c1` ; GI50 observed: 21 µM

Sample `N#C[Se]CCC(=O)NCCc1ccc(O)c(O)c1` ; GI50 observed: 24 µM

Sample `O=C(CCC[Se][Se]CCCC(=O)NCCc1ccc2c(c1)OCO2)NCCc1ccc2c(c1)OCO2` ; GI50 observed: 0.3 µM

* * *

Each entry below carries its reported Rf w/o Verapamil.
- Tested on: SW1573/Pgp
- assay_remarks: P-glycoprotein assay, line overexpressing P-gp
- Type: cell-based, human
- test_parameters: ratio between GI50 values in SW1573/PGP and SW1573 cells, without verapamil
// print number alone

Reference set, count: 8
# compound, Rf w/o Verapamil
measured = [
    ("N#C[Se]CCc1ccc2c(c1)OCO2", 1.6),
    ("c1cc2c(cc1C[Se][Se]Cc1ccc3c(c1)OCO3)OCO2", 6.0),
    ("N#C[Se]Cc1ccc2c(c1)OCO2", 3.1),
    ("O=C(CCC[Se][Se]CCCC(=O)NCCc1ccc(O)c(O)c1)NCCc1ccc(O)c(O)c1", 1.9),
    ("N#C[Se]CCCC(=O)NCCc1ccc2c(c1)OCO2", 3.1),
    ("CC(=O)O[C@H]1C(=O)[C@@]2(C)[C@H]([C@H](OC(=O)c3ccccc3)[C@]3(O)C[C@H](OC(=O)[C@H](O)[C@@H](NC(=O)c4ccccc4)c4ccccc4)C(C)=C1C3(C)C)[C@]1(OC(C)=O)CO[C@@H]1C[C@@H]2O [PTX, paclitaxel, reference compound]", 128),
    ("O=C(CC[Se][Se]CCC(=O)NCCc1ccc(O)c(O)c1)NCCc1ccc(O)c(O)c1", 1.5),
    ("c1ccc(C[Se]CCc2ccc3c(c2)OCO3)cc1", 1.1),
]

Sample CC[C@]1(O)C[C@@H]2CN(CCc3c([nH]c4ccccc34)[C@@](C(=O)OC)(c3cc4c(cc3OC)N(C)[C@H]3[C@@](O)(C(=O)OC)[C@H](OC(C)=O)[C@]5(CC)C=CCN6CC[C@]43[C@@H]65)C2)C1 [VB, vinblastine, reference compound] ; Rf w/o Verapamil observed: 2388

Sample `c1cc2c(cc1CC[Se][Se]CCc1ccc3c(c1)OCO3)OCO2` ; Rf w/o Verapamil observed: 2.0
